Listed here: items and their measured TGI.
Tested on: T-47D breast
Test: NCI tumour cell line growth inhibition, 48 h

Please review the entries below; each comes with its answer.
CC1(C)CC2=C(Sc3ccccc3N2)C(=O)C1C(=O)C(=O)Nc1cc(Cl)ccc1Cl (centres undefined) ... > 100 µM
CCOC(=O)c1c(N2CCOCC2)[nH]c(=O)c(C(c2cccs2)c2c(O)c(C(=O)OCC)c(N3CCOCC3)[nH]c2=O)c1O ... > 100 µM
CCOC(=O)C(NC(=O)CC)(Nc1ccc(S(=O)(=O)Nc2nc(C)cc(C)n2)cc1)C(F)(F)F (centres undefined) ... > 100 µM
COP(=O)(OC)C(NC=O)P(=O)(OC)OC ... > 100 µM
Cc1c(C#N)c2nnn(-c3ccccc3)c(=O)n2c1-c1ccccc1 ... 87.4 µM

IN: Value wanted: TGI (T-47D breast) of entry `Nc1ncccc1-c1nc2ccc(-c3ccccc3)nc2n1-c1ccc(C2(N)CCC2)cc1`
OUT: 0.158 µM

IN: // same read-out, input: `O=C1c2ccccc2C(=O)N1C1(C(=O)NC2(C(=O)O)CCCC2)CCCC1`
OUT: > 100 µM

IN: Quick one: CCOC(=O)C1=C(C)N2C(=NC3=C(CCC/C3=C\c3ccc(Cl)cc3)C2c2ccc(Cl)cc2)S1 (centres undefined)
OUT: 28.3 µM

IN: Continue with `CC(=O)O[C@H]1CN(S(=O)(=O)c2ccc(C)cc2)C[C@@H]1C1CCCCC1`
OUT: > 100 µM

###

Test system: BT-549 breast
Assay: NCI tumour cell line growth inhibition, 48 h
quantityKind: TGI (µM)
State the answer as a number, implicitly in µM.

Observe how each entry below is paired with its result.
Cc1cc(C)c2c(=N)c3ccccc3n(CCCCCCO)c2n1 ... 23.7
O=C1NC2CCCCC2N=C1/C(C(=O)c1ccccc1)=C(\O)c1ccccc1 (stereo not given) ... 55.3
CC1=C[C@@H](C)C[C@]2(C)CC[C@H](O2)[C@]23CC[C@](C)(C[C@H](O2)[C@@H]2O[C@@](C)(CC2=O)[C@@H](O)[C@H]2CC[C@@]4(CCC[C@@H](O4)[C@H](C)C(=O)O[C@H]4C[C@H]([C@]5(O)OCC[C@H](C)[C@@H]5O)O[C@H]4C=C1)O2)O3 ... 0.0103

Note: attention shifts to another entry.
IN: Identify the measured TGI of `CC(C)(C)c1cc(C(=O)/C=C/c2ccn[nH]2)cc(C(C)(C)C)c1O` for BT-549 breast.
OUT: 17

###

System: M14 melanoma
Experiment: NCI tumour cell line growth inhibition, 48 h; in the data active = GI50 below about 0.43 µM; inactive = the rest
Give your call using only these classes: 1 (yes) (active), 0 (no) (inactive)

Some entries whose results are on file:
COc1cccc2c1C(=O)c1c(O)c3c(c(O)c1C2=O)C[C@@](O)(C(=O)CO)C[C@@H]3OC1CC(N2CCOCC2C#N)C(O)C(C)O1 (some centres undefined) ... 1 (yes)
COc1cccc(CC(C)=C(c2ccc(OCCCN(C)C)cc2)c2ccc(OCCCN(C)C)cc2)c1 ... 0 (no)
Nc1n[nH]c2ccc([C@@H]3Nc4cc5[nH]ncc5cc4[C@H]4C5CCC(C5)[C@@H]34)cc12 (some centres undefined) ... 1 (yes)
CCSc1nc(N)c(C#N)c(-c2ccco2)c1C#N ... 0 (no)
O=S(=O)(NC1=NCCN1C(=S)SN1CCn2c1nsc2=S)c1cccc(OC(F)(F)F)c1 ... 0 (no)

Switching to the query record.
IN: // outcome(item) with item = `CN1CCN(c2cc3nc4ccccc4n(-c4ccc(Cl)cc4)c-3cc2=N)CC1`
OUT: 0 (no)

###

Test system: SK-MEL-5 melanoma
Experiment: NCI tumour cell line growth inhibition, 48 h
quantityKind: TGI

Take a look at these entries with their results.
CC(=O)OC(C)C(OC(C)=O)C(OC(C)=O)C(/C=C/C1CC=CC(=O)O1)OC(C)=O (centres undefined) ... > 100 µM
ONC1=Nc2ccccc2OCc2cc(Br)c(Br)cc2COc2ccccc2N=C1NO ... 30.4 µM
CN(CCc1ccc(Cl)c(Cl)c1)CCN(C)CCN1CCCC1 ... 7.75 µM

Kindly review the next molecule as well.
IN: TGI for `COc1ccc2c(c1)C(=O)c1c-2c(N2CCNCC2)nc2ccccc12` ?
OUT: 24.7 µM

###

System: UACC-257 melanoma
Experiment: NCI tumour cell line growth inhibition, 48 h; in the data active means GI50 below about 0.43 µM; inactive means the rest
The reply should be one of these categories: yes (1) for active, no (0) for inactive

Solved entries (count: 2):
COc1cccc2c1[C@H]1CO[C@H]3C4C[C@H](C(=O)O)C([C@@H](C2)N13)N4C (stereo partly drawn) ... no (0)
OCc1ccc(N2CCCC2)cc1Cl ... yes (1)

Would you kindly look at the next entry?
IN: // return assay outcome for `CCN(C(=O)CN1CCN(c2cc3c(cc2F)c(=O)c(C(=O)O)cn3CC)CC1)c1nc(-c2ccccc2)cs1`
OUT: yes (1)

###

Test system: SW-620 colon
Assay: NCI tumour cell line growth inhibition, 48 h; in the data active means GI50 below about 0.43 µM; inactive means the rest
I would appreciate it if you answered using one of these outcomes: active, inactive

// known answers, use as guide
CCC[CH2][Sn]([CH2]CCC)([O]C(=O)/C=C/c1ccccc1F)[O]C(=O)/C=C/c1ccccc1F ... active
CN1CCN(c2cc3nc4ccccc4n(-c4ccc(Cl)cc4)c-3cc2=N)CC1 ... inactive

IN: Identify the outcome logged in this assay for the compound shown: Nc1n[nH]c2ccc([C@@H]3Nc4cc5[nH]ncc5cc4[C@H]4C5CCC(C5)[C@@H]34)cc12 (stereo partly drawn)
OUT: active

###

Test system: OVCAR-4 ovarian
Assay: NCI tumour cell line growth inhibition, 48 h; in the data active means GI50 below about 0.43 µM; inactive means the rest
// allowed return values: 1 for active, -1 for inactive

Example cases with answers are listed next.
Nc1n[nH]c(N)c1N=Nc1ccc(O)cc1 ... -1
COc1ccc2c(c1)C(=O)c1c-2c(N2CCNCC2)nc2ccccc12 ... -1
C[C@H]1c2ccccc2CN1CCCOc1cc2c(cc1OCC1CC1)C1(CCCC1)C(N)=N2 ... -1

IN: # outcome recorded in this test, key = `O=S(=O)(NC1=NCCN1C(=S)SN1CCn2c1nsc2=S)c1cccc(OC(F)(F)F)c1`
OUT: -1

IN: Same read-out for Nc1n[nH]c2ccc([C@@H]3Nc4cc5[nH]ncc5cc4[C@H]4C5CCC(C5)[C@@H]34)cc12 (some centres undefined) ?
OUT: -1

IN: Same question, CN(c1ccc(C#N)c(Cl)c1)C1CCC(NC(=O)c2ccc(N3CCN(C4CN(c5ccc6c(c5)C(=O)N(C5CCC(=O)NC5=O)C6=O)C4)CC3)cc2)CC1 (centres undefined) this time
OUT: -1

IN: Another compound to look at: `O=C(Nc1cnc(C(F)(F)F)cn1)c1cc(Cl)ccc1O`
OUT: 1

IN: Moving on to the next compound: `N=C(N)c1ccc(-c2ccc(-c3ccc(Cl)cc3)s2)nc1`
OUT: -1

IN: What about `CC/C=C\C/C=C/C=C1/C(=O)C=C[C@@H]1C/C=C\CCCC(=O)OC` ?
OUT: -1

###

System: HOP-92 NSCLC
Test: NCI tumour cell line growth inhibition, 48 h
# maps each entry to its TGI
Please give a number only; it is taken to be in µM.

Before answering, review these 2 worked examples.
Nc1ncccc1-c1nc2ccc(-c3ccccc3)nc2n1-c1ccc(C2(N)CCC2)cc1 ... 1.2
CC(C)C(C/C=C1/CC(CO)(COC(=O)C2CCCCC2)OC1=O)C(C)C (stereo unspecified) ... 29.8

For the next question, use this compound.
IN: Missing value: TGI, HOP-92 NSCLC, entry `CN(CCc1ccc(Cl)c(Cl)c1)CCN(C)CCN1CCCC1` . Fill in?
OUT: 16

###

Quick reference: TGI of the listed items.
System: OVCAR-3 ovarian
Assay: NCI tumour cell line growth inhibition, 48 h
Give the number; µM is assumed, so skip it.

Nc1ccc(C(=O)NN2C(=O)C(Cl)C2c2cccc(O)c2)cc1 (centres undefined) ... 29.9

As a next step, examine the compound that follows.
IN: What measured TGI goes with `Cc1cc(NC(=O)c2cnc(N3CCN(CCOCCOCCOCCOCCC(=O)N[C@H](C(=O)N4C[C@H](O)C[C@H]4C(=O)N[C@@H](C)c4ccc(-c5scnc5C)cc4)C(C)(C)C)CC3)cn2)c2ncccc2c1` ?
OUT: 4.45

###

Test system: LOX IMVI melanoma
Test: NCI tumour cell line growth inhibition, 48 h
quantityKind: TGI

// solved cases for TGI follow
CC1=C[C@@H](C)C[C@]2(C)CC[C@H](O2)[C@]23CC[C@](C)(C[C@H](O2)[C@@H]2O[C@@](C)(CC2=O)[C@@H](O)[C@H]2CC[C@@]4(CCC[C@@H](O4)[C@H](C)C(=O)O[C@H]4C[C@H]([C@]5(O)OCC[C@H](C)[C@@H]5O)O[C@H]4C=C1)O2)O3 ... > 10 µM
O/N=C1\CCc2nonc2\C1=N/Nc1ccccc1 ... > 100 µM
CC(=O)Nc1ccc(C(=O)N2N=C(C)/C(=C/c3cccc([N+](=O)[O-])c3)C2=O)cc1 ... > 100 µM

IN: Returns the measured TGI for the input compound. Input: `O=C1c2ccccc2-c2nc(-c3ccccc3)cc3c2c1nc1ccccc13`
OUT: 10 µM

IN: Now the same for Nc1n[nH]c2ccc([C@@H]3Nc4cc5[nH]ncc5cc4[C@H]4C5CCC(C5)[C@@H]34)cc12 (some centres undefined)
OUT: 74.8 µM

IN: Next up: `CCOC(=O)c1c(NCc2ccccc2)n(-c2ccccc2)c(=S)n(-c2ccccc2)c1=O`
OUT: > 100 µM

IN: Next up: C#CCSc1nc(N)c2ncn(C3OC(COP(=O)(O)O)C(O)C3O)c2n1 (centres undefined)
OUT: > 239 µM

IN: Cool, now `Cc1cc(S(=O)(=O)Nc2nc3ccccc3n2-c2ccccc2)c(S)cc1Cl`
OUT: > 100 µM

IN: Same question, O=C1CCC2(O)C3Cc4ccc(Oc5nnnn5-c5ccccc5)c5c4C2(CCN3CC2CC2)C1O5 (centres undefined) this time
OUT: 84.6 µM
